# study.target: Mitogen-activated protein kinase 9 (Homo sapiens, UniProt P45984)
# Sequence (P45984 whole entry): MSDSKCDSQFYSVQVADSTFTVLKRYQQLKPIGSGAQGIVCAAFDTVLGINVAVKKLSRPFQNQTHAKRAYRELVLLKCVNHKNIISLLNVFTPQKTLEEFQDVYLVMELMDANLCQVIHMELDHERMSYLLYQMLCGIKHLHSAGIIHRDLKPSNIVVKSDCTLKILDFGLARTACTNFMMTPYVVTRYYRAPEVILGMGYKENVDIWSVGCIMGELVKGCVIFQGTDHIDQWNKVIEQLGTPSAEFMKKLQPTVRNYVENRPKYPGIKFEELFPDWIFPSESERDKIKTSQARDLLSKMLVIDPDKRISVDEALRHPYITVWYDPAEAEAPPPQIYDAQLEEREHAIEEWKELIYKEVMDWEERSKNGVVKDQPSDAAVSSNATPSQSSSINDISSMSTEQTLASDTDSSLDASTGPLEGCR
# test.description: Inhibition of JNK2 by HTRF assay
pIC50: −log10 of the molar value.

| record.smiles | study.target | pIC50 |
| --- | --- | --- |
| Cc1ccc(NC(=O)c2cccc(C(F)(F)F)c2)cc1C(=O)Nc1cnc(Nc2ccc(N3CCN(C)CC3)cc2)nc1 | Mitogen-activated protein kinase 9 (Homo sapiens, UniProt P45984) | 5.37 |

----------
# Tested on: Mus musculus
# test.description: Plasma concentration in BALB/c mouse at 10 mg/kg, po
# Assay type: ADME, organism-based
# Set-up: dose 10 mg/kg, route oral
# reported.conditions: in vivo
measurement.type: concentration (nM)

| record.smiles | study.target | value.measured |
| --- | --- | --- |
| Cc1ccc(NC(=O)c2cccc(C(F)(F)F)c2)cc1C(=O)Nc1cnc(Nc2ccc(N3CCN(C)CC3)cc2)nc1 | Mus musculus | 176 |

----------
# study.target: Ribosomal protein S6 kinase alpha-5 (Homo sapiens)
# Sequence (O75582 whole entry): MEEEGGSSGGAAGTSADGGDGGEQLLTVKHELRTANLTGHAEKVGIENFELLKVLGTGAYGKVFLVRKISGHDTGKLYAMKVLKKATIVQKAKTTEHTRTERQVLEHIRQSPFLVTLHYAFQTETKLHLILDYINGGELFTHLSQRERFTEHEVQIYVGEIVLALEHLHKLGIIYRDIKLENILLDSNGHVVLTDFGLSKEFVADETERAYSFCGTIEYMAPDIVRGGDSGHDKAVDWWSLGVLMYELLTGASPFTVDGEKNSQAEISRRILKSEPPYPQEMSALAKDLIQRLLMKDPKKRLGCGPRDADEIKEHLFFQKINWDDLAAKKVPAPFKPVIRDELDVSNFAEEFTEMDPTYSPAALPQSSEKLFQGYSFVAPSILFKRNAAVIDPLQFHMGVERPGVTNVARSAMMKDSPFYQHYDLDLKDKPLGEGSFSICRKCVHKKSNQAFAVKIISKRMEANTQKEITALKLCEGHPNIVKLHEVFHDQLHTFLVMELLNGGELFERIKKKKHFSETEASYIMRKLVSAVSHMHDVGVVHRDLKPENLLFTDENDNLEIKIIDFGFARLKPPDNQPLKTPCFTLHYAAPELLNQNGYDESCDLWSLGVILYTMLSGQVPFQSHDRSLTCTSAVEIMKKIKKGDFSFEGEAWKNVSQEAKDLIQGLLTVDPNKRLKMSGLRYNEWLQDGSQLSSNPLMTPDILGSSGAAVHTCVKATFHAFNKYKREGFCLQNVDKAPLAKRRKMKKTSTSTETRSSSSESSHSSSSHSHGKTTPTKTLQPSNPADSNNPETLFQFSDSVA
measurement.type: IC50

| record.smiles | value.measured |
| --- | --- |
| Cc1ccc(NC(=O)c2cccc(C(F)(F)F)c2)cc1C(=O)Nc1cnc(Nc2ccc(N3CCN(C)CC3)cc2)nc1 | > 100 µM |

----------
# study.target: Tyrosine-protein kinase Lyn (Homo sapiens, UniProt P07948)
# Sequence (P07948 whole entry): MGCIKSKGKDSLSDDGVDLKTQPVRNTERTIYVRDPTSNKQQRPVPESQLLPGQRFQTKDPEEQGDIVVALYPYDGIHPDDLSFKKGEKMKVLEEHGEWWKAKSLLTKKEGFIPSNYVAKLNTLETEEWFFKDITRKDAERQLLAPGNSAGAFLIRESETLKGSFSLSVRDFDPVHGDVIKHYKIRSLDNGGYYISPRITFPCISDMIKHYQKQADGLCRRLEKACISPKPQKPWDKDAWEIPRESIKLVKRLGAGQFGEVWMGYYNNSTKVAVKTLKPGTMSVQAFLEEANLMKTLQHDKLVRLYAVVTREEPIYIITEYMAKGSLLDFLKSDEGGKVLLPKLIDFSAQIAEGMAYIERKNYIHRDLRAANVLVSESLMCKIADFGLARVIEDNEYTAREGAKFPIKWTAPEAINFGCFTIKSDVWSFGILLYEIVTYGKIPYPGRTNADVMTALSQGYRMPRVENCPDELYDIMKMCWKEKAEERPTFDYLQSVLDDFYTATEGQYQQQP
pIC50: −log10 of the molar value.
measurement.type: pIC50

| record.smiles | value.measured |
| --- | --- |
| Cc1ccc(NC(=O)c2cccc(C(F)(F)F)c2)cc1C(=O)Nc1cnc(Nc2ccc(N3CCN(C)CC3)cc2)nc1 | 9.05 |

----------
# study.target: Serine/threonine-protein kinase PAK 2 (Homo sapiens, UniProt Q13177)
# Sequence (Q13177 whole entry): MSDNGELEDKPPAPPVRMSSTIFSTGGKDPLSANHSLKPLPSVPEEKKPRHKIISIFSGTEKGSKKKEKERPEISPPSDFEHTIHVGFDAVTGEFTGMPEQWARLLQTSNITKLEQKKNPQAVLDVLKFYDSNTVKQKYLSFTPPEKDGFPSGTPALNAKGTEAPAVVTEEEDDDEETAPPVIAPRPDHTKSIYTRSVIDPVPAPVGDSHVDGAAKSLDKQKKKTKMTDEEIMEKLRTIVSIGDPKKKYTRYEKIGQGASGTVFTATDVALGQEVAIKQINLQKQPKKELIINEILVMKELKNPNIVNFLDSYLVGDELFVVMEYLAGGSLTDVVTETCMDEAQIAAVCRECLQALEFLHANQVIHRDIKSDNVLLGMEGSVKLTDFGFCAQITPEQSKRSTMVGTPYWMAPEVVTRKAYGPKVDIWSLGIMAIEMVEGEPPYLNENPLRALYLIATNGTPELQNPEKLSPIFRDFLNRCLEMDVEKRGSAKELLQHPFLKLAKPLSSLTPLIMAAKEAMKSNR
pIC50: −log10 of the molar value.
measurement.type: pIC50

| record.smiles | measurement.type | value.measured |
| --- | --- | --- |
| Cc1ccc(NC(=O)c2cccc(C(F)(F)F)c2)cc1C(=O)Nc1cnc(Nc2ccc(N3CCN(C)CC3)cc2)nc1 | pIC50 | < 4.60 |

----------
# clearance values compiled below
# test.description: Clearance in Sprague-Dawley rat at 0.5 mg/kg, iv
# Format: ADME, organism-based
# Design: dose 0.5 mg/kg, route intravenous
# reported.conditions: in vivo
measurement.type: clearance (mL/min/kg)

| record.smiles | unit.string | value.measured |
| --- | --- | --- |
| Cc1ccc(NC(=O)c2ccc(C(C)(C)C)cc2)cc1C(=O)Nc1cnc(Nc2ccc(N3CCN(C)CC3)cc2)nc1 | mL/min/kg | 111 |
| Cc1ccc(NC(=O)c2cccc(C(F)(F)F)c2C)cc1C(=O)Nc1cnc(Nc2ccc(N3CCN(C)CC3)cc2)nc1 | mL/min/kg | 48.7 |
| Cc1ccc(NC(=O)c2ccc3c(c2)OC(F)(F)O3)cc1C(=O)Nc1cnc(Nc2ccc(N3CCN(C)CC3)cc2)nc1 | mL/min/kg | 22.8 |
| Cc1ccc(NC(=O)c2cccc(C(F)(F)F)c2)cc1C(=O)Nc1cnc(Nc2ccc(N3CCN(C)CC3)cc2)nc1 | mL/min/kg | 17.3 |
| Cc1ccc(NC(=O)c2cc(F)cc(C(F)(F)F)c2)cc1C(=O)Nc1cnc(Nc2ccc(N3CCN(C)CC3)cc2)nc1 | mL/min/kg | 8.17 |
| COc1cc(OC)cc(C(=O)Nc2ccc(C)c(C(=O)Nc3cnc(Nc4ccc(N5CCN(C)CC5)cc4)nc3)c2)c1 | mL/min/kg | 4.83 |
